All figures here come from PubChem BioAssay.

# assayed-target: Follistatin-related protein 3 (Homo sapiens) (UniProt O95633)
# Sequence (O95633 whole entry, looked up): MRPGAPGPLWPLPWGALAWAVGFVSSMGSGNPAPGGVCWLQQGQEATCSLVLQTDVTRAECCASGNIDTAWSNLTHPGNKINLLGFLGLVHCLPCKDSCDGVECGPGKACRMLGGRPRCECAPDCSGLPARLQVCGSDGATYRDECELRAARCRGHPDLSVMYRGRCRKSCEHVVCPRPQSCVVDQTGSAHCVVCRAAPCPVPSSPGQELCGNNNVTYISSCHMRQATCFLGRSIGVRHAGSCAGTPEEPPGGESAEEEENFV
# test-details: compounds binding follistatin-related protein 3 – biochemical, small-molecule microarray, 635 nm fluorescence, primary screen (AID 1105);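 note: score merges emission near 667 nm and signal to noise per printed spot across three slides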
# condition-info: FSTL3 binding, higher = more signal
measured-metric: composite z-score

-- ask What value of composite z-score has been reported for the following molecule? `NC(=O)NCC#Cc1ccc2c(c1)[C@]1(C(=O)N2)[C@H](c2ccc(OCCO)cc2)N2[C@H](c3ccccc3)[C@H](c3ccccc3)OC(=O)[C@H]2[C@@H]1C(=O)N1CCCCCCC1`
-- reply 1.64

---

# test-details: changes in parasitized red cell lysis, either direction – P. falciparum Indochina, OD700, 3 h, PSAC antagonist project, primary screen (AID 1156)
# condition-info: P. falciparum-infected erythrocytes, osmotic lysis, higher = more signal, called active from +8 up or from −8 down
measured-metric: z-score
# print the numeric value only

Here's what some known entries look like.
-- ask What value of z-score has been reported for the following compound? O=C1OCC=C[C@H]2OC34C=CCN(CCN5CCOCC5)C(=O)[C@H]3N(CCCCCO)C(=O)[C@@H]4[C@@H]12 (stereo partly drawn)
-- reply 1.5

-- ask What value of z-score has been reported for the following compound? `C=CCN1C(=O)[C@@]2(O[C@@H](CCn3cc([C@H](O)c4ccccc4)nn3)[C@H]([Si](C)(C)c3ccc(OC)cc3)[C@H]2C)c2cc(NC(=O)c3ccc(OC)cc3)ccc21`
-- reply 1.39

-- ask What value of z-score has been reported for the following compound? `COC(=O)[C@@]1(Cc2ccccc2)[C@H]2c3cc(C(=O)N(C)C)n(Cc4ccccn4)c3C[C@H]2CN1C(=O)c1ccccc1`
-- reply 0.365

-- ask What value of z-score has been reported for the following compound? `CCOC(=O)C1=CC[C@@H](c2ccc(N(CC)CC)cc2)N(S(=O)(=O)c2ccc(C)cc2)[C@H]1c1ccc([N+](=O)[O-])cc1`
-- reply 0.723

-- ask What value of z-score has been reported for the following compound? CC(C)c1ccc(NN2C(C(O)c3cccs3)C=CC3C(=O)N(c4ccccc4)C(=O)C32)cc1 (stereo not drawn)
-- reply 0.566

-- ask What value of z-score has been reported for the following compound? Cc1cc(C)c(C(O)C2C=CC3C(=O)N(c4ccccc4)C(=O)C3N2Nc2ccc([N+](=O)[O-])cc2)c(C)c1 (stereo not drawn)
-- reply 0.252

New cases:
-- ask What value of z-score has been reported for the following compound? `C=C(CCCC)/C(=C/C[C@@H](OC(=O)c1ccncc1)c1ccccc1OCCO)c1cc(C(=O)OC)ccc1OC`
-- reply 3.94

-- ask What value of z-score has been reported for the following compound? `CN(C)CCCN1C(=O)[C@@]2(Cc3ccccc31)c1ccccc1C(=O)N(Cc1ccccc1)[C@H]2c1ccc(CO)cc1`
-- reply 0.182

---

# test-details: probe aNOTCH3 binding on compound microarray – biochemical, small-molecule microarray, 635/667 nm fluorescence, primary screen (AID 1120);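 note: probe is a biotin-tagged antibody raised against NOTCH3 rather than NOTCH3 protein; score merges spot fluorescence near 667 nm with spot signal to noise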
# condition-info: higher = more signal
measured-metric: composite z-score
# print the numeric value only

Here's what some known entries look like.
-- ask What value of composite z-score has been reported for the following compound? `C=CC[C@]1(C(=O)N(C)C)N=C(c2ccc(OCCCO)cc2)O[C@H]1c1ccccc1`
-- reply 0.297

-- ask What value of composite z-score has been reported for the following compound? `CO[C@H]1O[C@H](CO)[C@@H](OC(=O)c2ccc(Br)cc2)[C@@H]2OC(=O)[C@H](Cc3cccc(Br)c3)C/C=C/C[C@@H](Cc3cccc(Br)c3)C(=O)O[C@@H]12`
-- reply 0.119

-- ask What value of composite z-score has been reported for the following compound? `COCC(=C=CC[C@@H](O)c1ccccc1OCCO)C[C@@H](O)c1ccccn1`
-- reply -0.0043

-- ask What value of composite z-score has been reported for the following compound? `[N-]=[N+]=NCc1ccccc1C[C@]1(C(=O)NCCN2CCOCC2)N=C(c2ccc(OCCCO)cc2)O[C@H]1c1ccccc1`
-- reply 0.408

New cases:
-- ask What value of composite z-score has been reported for the following compound? `O=C1O[C@H](c2ccccc2)[C@H](c2ccccc2)N2[C@H]1[C@@H](C(=O)NC[C@H](O)c1ccccc1)[C@]1(C(=O)Nc3ccccc31)[C@H]2c1ccccc1OCCO`
-- reply -0.171

-- ask What value of composite z-score has been reported for the following compound? `COc1ccc(C#Cc2ccc3c(c2)[C@]2(C(=O)N3)[C@H](c3ccc(OCCO)cc3)N3[C@H](c4ccccc4)[C@H](c4ccccc4)OC(=O)[C@H]3[C@@H]2C(=O)N2CCN(c3ncccn3)CC2)cc1`
-- reply -0.156
